# Ragweed plant response rating values compiled below
# Tested on: ragweed (common ragweed, Ambrosia elatior)
# measurement.notes: Test A postemergence, visual plant response rating
# Assay type: in vivo
# study.conditions: Postemergence, 125 g ai/ha; 0 to 100 scale (0 no effect, 100 complete control)
Please give only the number in your answer, with no unit.

// known answers, use as guide
CO/N=C(\c1cscc1C)c1c(O)c(C)nn(C)c1=O ... 60
CON=C(c1c(O)c(C)nn(C)c1=O)c1ccc(OC)c2ccccc12 ... 0
C#CCn1nc(C)c(O)c(C(=NOC)c2cccc(Cl)c2)c1=O (mixture of isomers) ... 20
CON=C(c1cccc(C2CC2)c1)c1c(O)c(C)nn(C)c1=O ... 80

Now, please, on to the next compound.
In plain terms, CCc1ccccc1C(=NOC)c1c(O)c(C)nn(C)c1=O has a documented Ragweed plant response rating of 60

###

# System: blackgrass (Alopecurus myosuroides)
# measurement.notes: Test A postemergence, visual plant response rating
# Type: in vivo
# study.conditions: Postemergence, 125 g ai/ha; 0 to 100 scale (0 no effect, 100 complete control)
# Source text: […]
value.kind: Blackgrass plant response rating
Please give only the number in your answer, with no unit.

CO/N=C(\c1ccc(F)cc1C)c1c(O)c(C)nn(C)c1=O ... 20
C=CCc1ccccc1C(=NOC)c1c(O)c(C)nn(C)c1=O ... 20
C#CCO/N=C(/c1c(O)c(C)nn(C)c1=O)c1ccc(F)c2ccccc12 ... 90
CON=C(c1cccc(C#N)c1)c1c(O)c(C)nn(C)c1=O ... 0
CON=C(c1ccc(C)s1)c1c(O)c(C)nn(C)c1=O (mixture of isomers) ... 0

In plain terms, Cc1ccccc1/C(=N\OC(C)C)c1c(O)c(C)nn(C)c1=O has a documented Blackgrass plant response rating of 20

In plain terms, C#CCO/N=C(\c1c(O)c(C)nn(C)c1=O)c1cccc2ccccc12 has a documented Blackgrass plant response rating of 90

In plain terms, Cc1nn(C)c(=O)c(/C(=N\OC(C)C)c2ccc(F)c3ccccc23)c1O has a documented Blackgrass plant response rating of 90

In plain terms, CCO/N=C(/c1c(O)c(C)nn(C)c1=O)c1cc(Br)cc2ccccc12 has a documented Blackgrass plant response rating of 90

###

# Tested on: galium (catchweed bedstraw, Galium aparine)
# measurement.notes: Test A postemergence, visual plant response rating
# Assay type: in vivo
# study.conditions: 500 g ai/ha, postemergence; 0 is no effect, 100 is complete control
# Galium plant response rating (0 to 100 scale) values compiled below
Please give only the number in your answer, with no unit.

C=CCc1ccccc1C(=NOC)c1c(O)c(C)nn(C)c1=O [Compound 121] ... 90
C#CCO/N=C(/c1c(O)c(C)nn(C)c1=O)c1ccc(F)c2ccccc12 [Compound 109] ... 100

In plain terms, CCO/N=C(\c1cccc(C)c1C)c1c(O)c(C)nn(C)c1=O [Compound 25] has a documented Galium plant response rating (0 to 100 scale) of 20

###

# Test system: foxtail, giant (giant foxtail, Setaria faberii)
# measurement.notes: Test A postemergence, visual plant response rating
# Type: in vivo
# study.conditions: 500 g ai/ha, postemergence; 0 is no effect, 100 is complete control
Use 40 as the dividing line for Foxtail, Giant plant response rating (0 to 100 scale), with the line itself on the Fulfilled side and lower values as Not fulfilled.

C=CCn1nc(C)c(O)c(C(=NOC)c2cccc(Cl)c2)c1=O (mixture of isomers) [Compound 5] ... Not fulfilled
CO/N=C(\c1ccsc1C)c1c(O)c(C)nn(C)c1=O [Compound 43] ... Not fulfilled
CCO/N=C(\c1c(O)c(Cl)nn(C)c1=O)c1cccc2ccccc12 [Compound 146] ... Fulfilled
CON=C(c1ccc(C)o1)c1c(O)c(C)nn(C)c1=O [Compound 141] ... Not fulfilled
CON=C(c1c(O)c(C)nn(C)c1=O)c1csc2ccccc12 (single isomer, unassigned) [Compound 45] ... Not fulfilled
CCCO/N=C(/c1c(O)c(C)nn(C)c1=O)c1cccc2ccccc12 [Compound 81] ... Fulfilled
CON=C(c1cc(Cl)ccc1C)c1c(O)c(C)nn(C)c1=O [Compound 65] ... Fulfilled
CO/N=C(\c1cscc1C)c1c(O)c(C)nn(C)c1=O [Compound 52] ... Not fulfilled
CO/N=C(/c1c(O)c(C)nn(C)c1=O)c1cc(Br)cc2ccccc12 [Compound 99] ... Fulfilled
CO/N=C(\c1c(O)c(Cl)nn(C)c1=O)c1cccc2ccccc12 [Compound 129] ... Fulfilled

[Q] Would you say CO/N=C(\c1cccc(C)c1F)c1c(O)c(C)nn(C)c1=O [Compound 50] shows Foxtail, Giant plant response rating (0 to 100 scale) at minimum 40?
[A] Fulfilled

[Q] Would you say CON=C(c1c(O)c(C)nn(C)c1=O)c1ccc(F)c2ccccc12 [Compound 51] shows Foxtail, Giant plant response rating (0 to 100 scale) at minimum 40?
[A] Fulfilled

[Q] Would you say CON=C(c1cc(C)cs1)c1c(O)c(C)nn(C)c1=O (mixture of isomers) [Compound 133] shows Foxtail, Giant plant response rating (0 to 100 scale) at minimum 40?
[A] Not fulfilled

###

# Test system: pigweed (Amaranthus retroflexus)
# measurement.notes: Test C preemergence, visual plant response rating
# Format: in vivo
# study.conditions: Test C, 31 g ai/ha, 0 is no effect, 100 is complete control
# Pigweed plant response rating (0 to 100 scale) values compiled below
Please give only the number in your answer, with no unit.

CC(C)O/N=C(/c1c(O)c(Cl)nn(C)c1=O)c1ccc(F)c2ccccc12 ... 20
Cc1nn(C)c(=O)c(/C(=N\OC(C)C)c2cccc3cc(Cl)ccc23)c1O ... 90
CON=C(c1cc(Cl)cc(Cl)c1)c1c(O)c(C)nn(C)c1=O ... 70

Now, please, on to the next molecule.
In plain terms, CCON=C(c1cc(Cl)cc(Br)c1)c1c(O)c(C)nn(C)c1=O [Compound 181] has a documented Pigweed plant response rating (0 to 100 scale) of 30

###

# Test system: wheat (Triticum aestivum)
# measurement.notes: Test A postemergence, visual plant response rating
# Type: in vivo
# study.conditions: 500 g ai/ha, postemergence; 0 is no effect, 100 is complete control
value.kind: Wheat plant response rating (0 to 100 scale)

CO/N=C(\c1c(O)c(C)nn(C)c1=O)c1cc(Br)cc2ccccc12 ... 80

In plain terms, Cc1nn(C)c(=O)c(C(=NOCC=CCl)c2ccc(F)c3ccccc23)c1O has a documented Wheat plant response rating (0 to 100 scale) of 40

In plain terms, CCO/N=C(/c1cccc(Cl)c1)c1c(O)c(C)nn(C)c1=O has a documented Wheat plant response rating (0 to 100 scale) of 0

In plain terms, CCc1ccccc1/C(=N\OC)c1c(O)c(C)nn(C)c1=O has a documented Wheat plant response rating (0 to 100 scale) of 0

###

# Test system: galium (catchweed bedstraw, Galium aparine)
# measurement.notes: Test A postemergence, visual plant response rating
# Format: in vivo
# study.conditions: 500 g ai/ha, postemergence; 0 is no effect, 100 is complete control
# From the text: […]
value.kind: Galium plant response rating (0 to 100 scale)
Please give only the number in your answer, with no unit.

CON=C(c1cccc(Cl)c1)c1c(O)c(C)nn(CC2CC2)c1=O (mixture of isomers) ... 0
CON=C(c1c(O)c(C)nn(C)c1=O)c1ccc(OC)c2ccccc12 ... 70
CON=C(c1c(Cl)ccc(C)c1F)c1c(O)c(C)nn(C)c1=O ... 80

In plain terms, CO/N=C(\c1cc(C)ccc1C)c1c(O)c(C)nn(C)c1=O has a documented Galium plant response rating (0 to 100 scale) of 80

In plain terms, CON=C(c1c(O)c(C)nn(C)c1=O)c1cccc2cc(F)ccc12 has a documented Galium plant response rating (0 to 100 scale) of 100

###

# Wheat plant response rating values compiled below
# System: wheat (Triticum aestivum)
# measurement.notes: Test A postemergence, visual plant response rating
# Type: in vivo
# study.conditions: Postemergence, 500 g ai/ha; 0 to 100 scale (0 no effect, 100 complete control)
Please give only the number in your answer, with no unit.

// known answers, use as guide
CO/N=C(/c1c(O)c(Cl)nn(C)c1=O)c1cccc2ccccc12 ... 0
CON=C(c1ccc(C)s1)c1c(O)c(C)nn(C)c1=O (mixture of isomers) ... 0
CCO/N=C(/c1c(O)c(Cl)nn(C)c1=O)c1cccc2ccccc12 ... 0

Now, please, on to the next molecule.
The value of Wheat plant response rating recorded for CON=C(c1cccc(Cl)c1)c1c(O)c(C)n[nH]c1=O (mixture of isomers) when tested on wheat (Triticum aestivum) reads 20

###

# Tested on: foxtail, green (green foxtail, Setaria viridis)
# measurement.notes: Test A postemergence, visual plant response rating
# Assay type: in vivo
# study.conditions: 500 g ai/ha, postemergence; 0 is no effect, 100 is complete control
value.kind: Foxtail, Green plant response rating (0 to 100 scale)
Please give only the number in your answer, with no unit.

// known answers, use as guide
CCO/N=C(/c1ccc(C)cc1)c1c(O)c(C)nn(C)c1=O [Compound 16] ... 10
CO/N=C(/c1cccc(C)c1C)c1c(O)c(C)nn(C)c1=O [Compound 23] ... 0
Cc1ccccc1/C(=N/OC(C)C)c1c(O)c(C)nn(C)c1=O [Compound 19] ... 50
CCn1nc(C)c(O)c(/C(=N/OC)c2cccc(C)c2)c1=O [Compound 1] ... 10

In plain terms, CCn1nc(C)c(O)c(C(=NOC)c2cccc(Cl)c2)c1=O (mixture of isomers) [Compound 2] has a documented Foxtail, Green plant response rating (0 to 100 scale) of 20
